Listing: CC50 at 2 days of selected compounds
- experiment description: Cytotoxicity evaluation using the SRB assay
- recorded conditions: human, CC50 (nM), Table 1; inhibition of cell growth of host A549 cells by 50%; triplicate
Your answer is read as nM, so omit the unit and give the number.

Recorded CC50 at 2 days (compound COc1cc2c(O[C@H]3OC[C@@]4(CO)OC(C)(C)O[C@@H]34)c3c(c(-c4ccc5c(c4)OCO5)c2cc1OC)C(=O)OC3 [Compound 10] ): 188

Recorded CC50 at 2 days (compound COc1cc2c(O[C@H]3OC[C@@]4(CN)OC(C)(C)O[C@@H]34)c3c(c(-c4ccc5c(c4)OCO5)c2cc1OC)C(=O)OC3 [Compound 26] ): 4550

# compound COc1cc2c(O[C@H]3OC[C@@]4(COC(C)=O)OC(C)(C)O[C@@H]34)c3c(c(-c4ccc5c(c4)OCO5)c2cc1OC)C(=O)OC3 [Compound 12] ; its CC50 at 2 days = 472

The compound listed as COc1cc2c(O[C@H]3OC[C@@]4(COC(C)=O)OC(c5ccccc5)O[C@@H]34)c3c(c(-c4ccc5c(c4)OCO5)c2cc1OC)C(=O)OC3 (stereo partly drawn) [Compound 21] shows CC50 at 2 days equal to 328

Further cases:
Memo: COc1cc2c(O[C@@H]3OC[C@@]4(COC(C)=O)OC(c5ccccc5)O[C@@H]34)c3c(c(-c4ccc5c(c4)OCO5)c2cc1OC)C(=O)OC3 (stereo partly drawn) [Compound 20] , reported CC50 at 2 days: 2580
